- Tested on: Fer (mouse);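 further: 11-residue human phosphosite peptides and single-mutation variants displayed on the E. coli surface, counted by deep sequencing, each peptide's frequency after selection divided by its frequency in the unselected input library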;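 further: frequency after pTyr selection over input frequency; kinase dosed for 20-30% of maximal phosphorylation in three min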
- Assay protocol: phosphorylation enrichment, bacterial display (enrichment ratio); higher = better substrate or ligand; peptides without Tyr show the background
Metric name: phosphorylation enrichment
Answer with the value's number alone.

[[record]]
chain = "APEVIYATPGA [ABLtide_2014]"
numeric_readout = 11.6

[[record]]
chain = "HNELFYEAAEH [VANGL1_Y345_E347A_YF]"
numeric_readout = 9.73

[[record]]
chain = "AGQEDCDRLRP [CDC42_Y64_Y64C]"
numeric_readout = 0.439


Next sequence, phosphorylation enrichment to be filled in.
Enquiry: Note phosphorylation enrichment for the sequence shown: LNPLVYTLRNA [OR4C12_Y285_V283L]
Return: 0.76
